meta.source: the supplement of paper PMC10724198

Test system: Saccharomyces cerevisiae;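 further: PSI is a weighted mean of sequencing reads over stability bins, variants kept only with over 10 reads, mCherry proximal and sfGFP distal, peptide attached via GGGS linker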
procedure.text: protein stability index of tFT-peptide fusion (C-terminal peptide) (PSI (0-1 scale)); higher = more stable (slower turnover)
measurement.setup: genetic background: cdc53-1; temperature: 37 C

{"columns": ["sequence.chain", "target.of.assay", "protein stability index"],
 "data": [
  ["VFVLFCAFVRAL", "Saccharomyces cerevisiae", 0.413],
  ["TLFSFLLVFVFG", "Saccharomyces cerevisiae", 0.315],
  ["LFVFTYPFLSWL", "Saccharomyces cerevisiae", 0.66],
  ["CIHMNCSMMIIS", "Saccharomyces cerevisiae", 0.084],
  ["ACGGGSNVHRAG", "Saccharomyces cerevisiae", 0.725],
  ["VVCFVVCGFYLG", "Saccharomyces cerevisiae", 0.316],
  ["PFFFIFVLPFVF", "Saccharomyces cerevisiae", 0.512],
  ["PRLRPQTVAFLS", "Saccharomyces cerevisiae", 0.732],
  ["VVWIQRTVLSLI", "Saccharomyces cerevisiae", 0.603],
  ["LRRVHRIKLQVC", "Saccharomyces cerevisiae", 0.431],
  ["FFRVCNALLLVC", "Saccharomyces cerevisiae", 0.0334],
  ["GVVRKLCHWVVA", "Saccharomyces cerevisiae", 0.516],
  ["LFFLSASFFFFF", "Saccharomyces cerevisiae", 0.554],
  ["SVHKYGFIKEIN", "Saccharomyces cerevisiae", 0.709],
  ["GGSKIGFTVGGG", "Saccharomyces cerevisiae", 0.741],
  ["RLLRGDRMVICS", "Saccharomyces cerevisiae", 0.565],
  ["GVAVVWVGLGVT", "Saccharomyces cerevisiae", 0.445],
  ["CFFLLLRVSLFP", "Saccharomyces cerevisiae", 0.112],
  ["RLHCFSPILCPI", "Saccharomyces cerevisiae", 0.576]
]}
